Test system: LTC4
assayMethodText: LTC4 antagonism in isolated guinea-pig trachea, Test method (i) (Table 2)
Format: cell-based
conditions: Cavia porcellus, 5 min; LTC4 2×10^-8 g/ml; test compound 10^-5 g/ml; read-out: Antagonism (%)
endpointLabel: inhibition at 10 µg/mL (%)
Give bare numbers, in %.

CCCc1c(OCCCOc2cnn(C(C)(C)C)c(=O)c2Cl)ccc2c(=O)cc(C(=O)OCC)oc12; 27
CCCc1cc(C(=O)OC)ccc1OCCCNc1cn[nH]c(=O)c1Cl; 99
CCn1ncc(NCCc2ccc(OC)cc2)c(Cl)c1=O; 73
CCCc1c(OCCCOc2cnn(CC)c(=O)c2Cl)ccc2c(=O)cc(C(=O)OCC)oc12; 53

# evaluate next
Inquiry: Consider the compound shown here: CCCc1cc(C(=O)O)ccc1OCCCNc1cnn(CC)c(=O)c1Cl What is its recorded inhibition at 10 µg/mL?
Reply text: 95

###

Tested on: LTC4
assayMethodText: Antagonism in isolated guinea-pig trachea, Test method (i) (Table 3, given as LTC4 antagonism)
Format: cell-based
conditions: Cavia porcellus, 5 min, test compound 10^-5 g/ml, given as LTC4 antagonisms
endpointLabel: inhibition at 10 µg/mL (%)
One number for each entry, in %.

# per-item lookup of inhibition at 10 µg/mL; items listed below
1. CCCc1cc(C#N)ccc1OCC(=O)CNc1cnn(C(C)C)c(=O)c1Cl
2. C=CCc1cc(C(=O)OC)ccc1OCCCNc1cnn(CC)c(=O)c1Cl
3. CCCc1cc(OC)ccc1OCC(O)CNc1cnn(CC)c(=O)c1Cl (stereo not drawn)

Reply text:
1. 81
2. 80
3. 60

###

System: LTC4
assayMethodText: Antagonism in isolated guinea-pig trachea, Test method (i) (Table 3, given as LTC4 antagonism)
Format: cell-based
conditions: Cavia porcellus, 5 min, test compound 10^-5 g/ml, given as LTC4 antagonisms
Binning rule for recorded inhibition at 10 µg/mL: low end (below 50%), middle (50% to below 70%), high end (70% or more)

Record excerpt, results attached:
COC(=O)c1ccc(OCCCOc2cnn(C(C)C)c(=O)c2Cl)c(C(C)C)c1; middle
CCCc1cc(C#N)ccc1SCCCNc1cnn(C(C)C)c(=O)c1Cl; high end
CCCc1c(OCC(O)COc2ccc3c(=O)cc(C(=O)O)oc3c2CCC)ccc(C(C)=O)c1O (centres unmarked) [FPL-55712, reference compound]; high end
CCCc1cc(C(=O)OC)ccc1SCC(O)CNc1cnn(C(C)C)c(=O)c1Cl (centres unmarked); middle
CCCc1cc(C(=O)OC)ccc1OCC(CNc1cnn(C(C)C)c(=O)c1Cl)OC (centres unmarked); high end

Inquiry: Kindly state the category for this compound: CCCc1cc(C(=O)OC)ccc1SCC(=O)CNc1cnn(C(C)C)c(=O)c1Cl
Reply text: middle

Inquiry: Kindly state the category for this compound: CC(C)n1ncc(NCC(O)COc2ccccc2Cl)c(Cl)c1=O (centres unmarked)
Reply text: low end

Inquiry: Kindly state the category for this compound: CCOC(=O)c1ccc(OCCCNc2cnn(C(C)(C)C)c(=O)c2Cl)c(Cl)c1
Reply text: low end

Inquiry: Kindly state the category for this compound: CC(C)n1ncc(NCCCOc2ccc(C(=O)CCC(=O)O)cc2)c(Cl)c1=O
Reply text: low end

Inquiry: Kindly state the category for this compound: CCCc1cc(C(=O)OC)ccc1OCC(COc1cnn(C(C)C)c(=O)c1Cl)OC (centres unmarked)
Reply text: middle

###

Test system: LTD4
assayMethodText: LTD4 antagonism in isolated guinea-pig trachea with indomethacin, Test method (ii) (Table 4)
Format: cell-based
conditions: Cavia porcellus, 0.5 h, LTD4 2×10^-8 g/ml, test compound 10^-6 g/ml, 30 min prior, 5 μmol indomethacin
// label = YES if inhibition at 1 µg/mL is not less than 80%, otherwise NO

CCCc1cc(C(=O)O)ccc1OCCCNc1cnn(C(C)C)c(=O)c1Br; YES

Inquiry: Please indicate if the recorded inhibition at 1 µg/mL for CCC(C)c1cc(C(=O)O)ccc1OCCCNc1cnn(CC)c(=O)c1Br (stereo not drawn) meets or exceeds 80%.
Reply text: YES

Inquiry: Please indicate if the recorded inhibition at 1 µg/mL for CCCCCc1cc(C(N)=O)ccc1OCCCNc1cnn(CC)c(=O)c1Cl meets or exceeds 80%.
Reply text: YES

Inquiry: Please indicate if the recorded inhibition at 1 µg/mL for CCCCCc1cc(C(=O)O)ccc1OCCCNc1cnn(CC)c(=O)c1Br meets or exceeds 80%.
Reply text: YES

###

System: LTC4
assayMethodText: Antagonism in isolated guinea-pig trachea, Test method (i) (Table 3, given as LTC4 antagonism)
Format: cell-based
conditions: Cavia porcellus, 5 min, test compound 10^-5 g/ml, given as LTC4 antagonisms
Answer each item with its documented inhibition at 10 µg/mL.
Answers are plain numbers, in %.

CCCc1cc(C(=O)O)ccc1OCCCNc1cnn(C(C)C)c(=O)c1Cl; 99

# per-item lookup of inhibition at 10 µg/mL; items listed below
1. COc1ccc(OCCCNc2cnn(C(C)C)c(=O)c2Cl)cc1
2. COC(COc1ccc(C(=O)C(C)CC(=O)O)cc1)CN(C)c1cnn(C(C)C)c(=O)c1Cl (centres unmarked)
3. CCn1ncc(OCCCOc2cccc(OC)c2)c(Cl)c1=O
4. CCCCc1cc(C(N)=O)ccc1OCCCNc1cnn(C(C)C)c(=O)c1Cl
5. CCCc1cc(C#N)ccc1OCCCNc1cnn(C(C)C)c(=O)c1Cl
6. CCCc1cc(C(=O)OC)ccc1OCCCOc1cnn(CC)c(=O)c1Cl
7. CCc1cc(C=O)ccc1OCCCNc1cnn(CC)c(=O)c1Cl
8. CC(C)c1cc(C(=O)O)ccc1OCCCNc1cnn(C(C)C)c(=O)c1Cl

Reply text:
88
21
61
89
98
85
100
52

# per-item lookup of inhibition at 10 µg/mL; items listed below
1. CCCCc1cc(C(=O)O)ccc1OCCCNc1cnn(CC)c(=O)c1Cl
2. CCCc1cc(OC)ccc1OCCCNc1cnn(CC)c(=O)c1Cl

Reply text:
1. 100
2. 100

###

Test system: LTC4
assayMethodText: Antagonism in isolated guinea-pig trachea, Test method (i) (Table 3, given as LTC4 antagonism)
Assay type: cell-based
conditions: Cavia porcellus, 5 min, test compound 10^-5 g/ml, given as LTC4 antagonisms
endpointLabel: inhibition at 10 µg/mL (%)
Numbers only, in %.

CCCc1cc(C#N)ccc1SCC(O)CNc1cnn(C(C)C)c(=O)c1Cl (stereo not drawn); 64
CCn1ncc(NCCCOc2ccc(C(=O)O)cc2C(C)C)c(Cl)c1=O; 57

# evaluate next
Inquiry: Consider the compound shown here: CCc1cc(C=O)ccc1OCCCNc1cnn(C(C)C)c(=O)c1Cl What is its recorded inhibition at 10 µg/mL?
Reply text: 98

###

Answer each item with its documented inhibition at 10 µg/mL.
Test system: LTC4
assayMethodText: Antagonism in isolated guinea-pig trachea, Test method (i) (Table 3, given as LTC4 antagonism)
Format: cell-based
conditions: Cavia porcellus, 5 min, test compound 10^-5 g/ml, given as LTC4 antagonisms

COc1ccccc1OCCCNc1cnn(C(C)C)c(=O)c1Cl; 82%
CCCc1cc(C(=O)O)ccc1SCCCNc1cnn(C(C)C)c(=O)c1Cl; 57%
CCCc1cc(-c2nn[nH]n2)ccc1OCCCNc1cnn(CC)c(=O)c1Cl; 36%
CCCc1cc(C#N)ccc1OCC(O)CNc1cnn(C(C)C)c(=O)c1Cl (centres unmarked); 85%
CCCc1cc(OC)ccc1OCCCNc1cnn(C(C)C)c(=O)c1Cl; 89%
CCn1ncc(NCCc2ccc(OC)cc2)c(Cl)c1=O; 80%
CCCc1cc(C(N)=O)ccc1OCC(O)CNc1cnn(C(C)C)c(=O)c1Cl (centres unmarked); 17%
CCOc1ccccc1OCCCNc1cnn(C(C)C)c(=O)c1Cl; 88%

# per-item lookup of inhibition at 10 µg/mL; items listed below
1. CCCc1cc(O)ccc1OCCCNc1cnn(C(C)C)c(=O)c1Cl
2. CCCc1cc(C#N)ccc1OCC(=O)COc1cnn(C(C)C)c(=O)c1Cl
3. CCCc1cc(C(=O)OC)ccc1OCC(O)CNc1cnn(C(C)C)c(=O)c1Cl (centres unmarked)

Reply text:
1. 99%
2. 35%
3. 66%

###

Test system: LTD4
assayMethodText: LTD4 antagonism in isolated guinea-pig trachea with indomethacin, Test method (ii) (Table 4)
Format: cell-based
conditions: Cavia porcellus, 0.5 h, LTD4 2×10^-8 g/ml, test compound 10^-6 g/ml, 30 min prior, 5 μmol indomethacin
endpointLabel: inhibition at 1 µg/mL
Give the number first and the unit second.

# annotated cases, reported inhibition at 1 µg/mL shown
CCCc1cc(C(=O)OC)ccc1OCCCNc1cnn(C(C)C)c(=O)c1Br; 92%
CCCCc1cc(C(N)=O)ccc1OCCCNc1cnn(CC)c(=O)c1Br; 88%

# evaluate next
Inquiry: Consider the molecule shown here: CCCCc1cc(C(=O)OC)ccc1OCCCNc1cnn(C(C)C)c(=O)c1Br What is its recorded inhibition at 1 µg/mL?
Reply text: 90%

###

Test system: LTC4
assayMethodText: Antagonism in isolated guinea-pig trachea, Test method (i) (Table 3, given as LTC4 antagonism)
Assay type: cell-based
conditions: Cavia porcellus, 5 min, test compound 10^-5 g/ml, given as LTC4 antagonisms
endpointLabel: inhibition at 10 µg/mL (%)
Give bare numbers, in %.

CCCc1cc(C(=O)O)ccc1OCCCNc1cnn(C)c(=O)c1Cl; 35
CCCc1c(OCCCOc2cnn(C(C)(C)C)c(=O)c2Cl)ccc2c(=O)cc(C(=O)OCC)oc12; 31
CCCc1cc(C(=O)O)ccc1OCCCOc1cnn(CC)c(=O)c1Cl; 46
Cc1ccc(S(=O)(=O)OCCCNc2cnn(C(C)(C)C)c(=O)c2Cl)cc1; 40
COC(=O)c1ccc(OCCCNc2cnn(C(C)C)c(=O)c2Cl)c(C(C)C)c1; 97
CC(C)c1ccccc1OCC(O)COc1cnn(C(C)C)c(=O)c1 (centres unmarked); 50

# per-item lookup of inhibition at 10 µg/mL; items listed below
1. CCn1ncc(NCCc2ccc(OC)c(OC)c2)c(Cl)c1=O
2. COc1cc(C)ccc1OCCCNc1cnn(C(C)C)c(=O)c1Cl
3. CCc1cc(C#N)ccc1OCCCNc1cnn(C(C)C)c(=O)c1Cl
4. CCOc1cc(C(=O)O)ccc1OCCCNc1cnn(C(C)C)c(=O)c1Cl
5. CCCc1c(OCCCOc2cnn(C(C)(C)C)c(=O)c2Cl)ccc2c(=O)cc(C(=O)O)oc12
6. COC(=O)CCC(=O)c1ccc(OCC(O)CNc2cnn(C(C)C)c(=O)c2Cl)cc1 (centres unmarked)

Reply text:
1. 20
2. 66
3. 89
4. 14
5. 40
6. 25
